- MEASURED ON: anti-cotinine antibody (SEQ ID NO: 11/12, rabbit variable region with human IgG1 Fc DE mutation)
- TEST: SPR binding of anti-cotinine antibody to ARM compounds, Biacore T200, 37° C. (Example 202)
- EXPERIMENTAL SETUP: SPR Biacore T200, 37° C., pH 7.4, antibody SEQ ID NO: 11/12 captured on protein A; Kd in molar
- Excerpt: Anti-cotinine antibodies having a heavy chain sequence of SEQ ID NO: 11 and a light chain sequence of SEQ ID NO: 12 (rabbit variable region with human IgG1 Fc domain containing a DE mutation (S239D/1332E)) were captured on one or more flow cells of a protein A sensor chip (Cytiva) using a Biacore T200 while reserving flow cell 1 as a reference. […] The experiment was run using Biacore T200 control software and evaluated using Biacore T200 Evaluation software. […]
We begin with a simple list: items and their reported pKd of Antibody for ARM Compound of Formula (I).
TEST READOUT: pKd of Antibody for ARM Compound of Formula (I)

[
  {
    "COMPOUND": "CC(C)N(C)[C@@H]1CC[C@H](N2CC[C@H](Nc3ncnc4ccc(C(F)(F)F)cc34)C2=O)[C@H](NC(=O)[C@H]2CC[C@@H](NC(=O)CCOCCNC(=O)CCNC(=O)CCNC(=O)[C@H]3CC(=O)N(C)[C@@H]3c3cccnc3)CC2)C1 [Example 182]",
    "NUMERIC VALUE": 9.117
  },
  {
    "COMPOUND": "CC(C)N(C)[C@@H]1CC[C@H](N2CC[C@H](Nc3ncnc4ccc(C(F)(F)F)cc34)C2=O)[C@H](NC(=O)COCCNC(=O)CCOCCNC(=O)COCCNC(=O)[C@H]2CC(=O)N(C)[C@@H]2c2cccnc2)C1 [Example 104]",
    "NUMERIC VALUE": 9.051
  },
  {
    "COMPOUND": "CC(C)N(C)[C@@H]1CC[C@H](N2CC[C@H](Nc3ncnc4ccc(C(F)(F)F)cc34)C2=O)[C@H](NC(=O)CCCNc2c(NCCOCCOCCOCCOCCNC(=O)[C@H]3CC(=O)N(C)[C@@H]3c3cccnc3)c(=O)c2=O)C1 [Example 164]",
    "NUMERIC VALUE": 9.3225
  },
  {
    "COMPOUND": "CC(C)N(C)[C@@H]1CC[C@H](N2CC[C@H](Nc3ncnc4ccc(C(F)(F)F)cc34)C2=O)[C@H](NC(=O)[C@H]2CC[C@@H](NC(=O)COCCNC(=O)CCOCCNC(=O)[C@H]3CC(=O)N(C)[C@@H]3c3cccnc3)CC2)C1 [Example 152]",
    "NUMERIC VALUE": 9.111
  },
  {
    "COMPOUND": "CC(C)N(C)[C@@H]1CC[C@H](N2CC[C@H](Nc3ncnc4ccc(C(F)(F)F)cc34)C2=O)[C@H](NC(=O)[C@H]2CC[C@@H](NC(=O)COCCOCCNC(=O)CNC(=O)[C@H]3CC(=O)N(C)[C@@H]3c3cccnc3)CC2)C1 [Example 171]",
    "NUMERIC VALUE": 8.7865
  },
  {
    "COMPOUND": "CC(C)N(C)[C@@H]1CC[C@H](N2CC[C@H](Nc3ncnc4ccc(C(F)(F)F)cc34)C2=O)[C@H](NC(=O)[C@H]2CC[C@H](NC(=O)CCCOC[C@H]3CC[C@@H](COCCNC(=O)[C@H]4CC(=O)N(C)[C@@H]4c4cccnc4)CC3)CC2)C1 [Example 57]",
    "NUMERIC VALUE": 9.685
  },
  {
    "COMPOUND": "CC(C)N(C)[C@@H]1CC[C@H](N2CC[C@H](Nc3ncnc4ccc(C(F)(F)F)cc34)C2=O)[C@H](NC(=O)[C@H]2CC[C@@H](NC(=O)CCOCCNC(=O)COCCCNC(=O)[C@H]3CC(=O)N(C)[C@@H]3c3cccnc3)CC2)C1 [Example 175]",
    "NUMERIC VALUE": 9.244
  },
  {
    "COMPOUND": "CC(C)N(C)[C@@H]1CC[C@H](N2CC[C@H](Nc3ncnc4ccc(C(F)(F)F)cc34)C2=O)[C@H](NC(=O)CCOCCNC(=O)[C@H]2CC[C@@H](NC(=O)CCOCCNC(=O)[C@H]3CC(=O)N(C)[C@@H]3c3cccnc3)CC2)C1 [Example 110]",
    "NUMERIC VALUE": 8.9085
  }
]
